Where do these numbers come from? They come from the RNAGym collection of RNA variant scans (doi:10.1093/nar/gkz1192).

B1: CPEB3 Ribozyme (parent)
chain: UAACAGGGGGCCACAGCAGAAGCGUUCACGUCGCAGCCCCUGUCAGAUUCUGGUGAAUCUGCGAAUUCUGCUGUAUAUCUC

# Variants of: B1
# protocol: self-cleavage, relative activity (ratio to wild type); higher = more cleavage; in vitro, sequencing
measured parameter: self-cleavage

INSERT INTO measurements (variant_key, measured_parameter, measured_number) VALUES
  ('C17U A64U', 'self-cleavage', 0.3),
  ('U25G C39U', 'self-cleavage', 0.3),
  ('U1C A77G', 'self-cleavage', 0.91),
  ('U26G U31A', 'self-cleavage', 0.3),
  ('A35U U41A', 'self-cleavage', 0.3);
